# System: Clostridium paraputrificum
# PROTOCOL DETAILS: Antibacterial activity against beta-lactamase producing Clostridium paraputrificum assessed as resistant isolates by CLSI agar dilution method
# Type: functional
MEASURED PARAMETER: Activity (%)
Number in %, nothing else.

[
  {
    "COMPOUND": "C[C@@H](O)[C@H]1C(=O)N2C(C(=O)O)=C(S[C@@H]3CN[C@H](C(=O)N(C)C)C3)[C@H](C)[C@H]12",
    "MEASURED VALUE": 0
  },
  {
    "COMPOUND": "CO[C@@]1(NC(=O)CSCC#N)C(=O)N2C(C(=O)O)=C(CSc3nnnn3C)CS[C@@H]21",
    "MEASURED VALUE": 0
  },
  {
    "COMPOUND": "C[C@@H](O)[C@H]1C(=O)N2C(C(=O)O)=C(SCCNC=N)C[C@H]12 [IMIPENEM ANHYDROUS]",
    "MEASURED VALUE": 4
  },
  {
    "COMPOUND": "C[C@@H](O)[C@H]1C(=O)N2C(C(=O)O)=C(S[C@@H]3CN[C@H](CNS(N)(=O)=O)C3)[C@H](C)[C@H]12",
    "MEASURED VALUE": 0
  },
  {
    "COMPOUND": "CCN1CCN(C(=O)N[C@@H](C(=O)N[C@@H]2C(=O)N3[C@@H]2SC(C)(C)[C@@H]3C(=O)O)c2ccccc2)C(=O)C1=O",
    "MEASURED VALUE": 0
  }
]

# value lookup — system Clostridium paraputrificum, readout Activity, item `O=C(N[C@H](CO)[C@H](O)c1ccc([N+](=O)[O-])cc1)C(Cl)Cl`
0

# value lookup — system Clostridium paraputrificum, readout Activity, item `C[C@@H](O)[C@H]1C(=O)N2C(C(=O)O)=C(S[C@@H]3CN[C@H](C(=O)Nc4cccc(C(=O)O)c4)C3)[C@H](C)[C@H]12`
0

# value lookup — system Clostridium paraputrificum, readout Activity, item `CCC[C@@H]1C[C@@H](C(=O)N[C@@H]([C@H]2O[C@H](SC)[C@H](O)[C@@H](O)[C@H]2O)[C@H](C)Cl)N(C)C1`
14

# value lookup — system Clostridium paraputrificum, readout Activity, item `Cc1ncc([N+](=O)[O-])n1CCO`
11
